Assignment: determine reported log10(TGI) for the given molecules.
System: UO-31 renal
Experiment: NCI tumour cell line growth inhibition, 48 h
log10 TGI, µM

Ask: Which value of log10(TGI) has been reported for C=C1C(=O)OC2C=C(CCC(C)=O)C(C)C(OC(C)=O)CC12 (stereo not drawn) in the records?
Reply: 1.42

Ask: Let us now turn to COc1cc(Cl)cc(-c2nn(-c3cccc(NC(=O)Nc4cc(C(F)(F)F)cc(C(F)(F)F)c4)c3)cc2-c2ccncc2)c1
Reply: 0.28

Ask: Let us now turn to C[C@]12C[C@@H](c3ccccc3)Nc3ccccc3N1C(c1ccccc1)=NO2
Reply: 1.95

Ask: Let us now turn to O=P(CCCCP(=O)(c1ccccc1)c1ccccc1)(c1ccccc1)c1ccccc1.[Cl][Sn]([Cl])([c]1ccccc1)[c]1ccccc1
Reply: 0.50

Ask: Let us now turn to C=C(C)[C@@H]1CC[C@]2(C)[C@H](CC=C3[C@@H]4[C@@H](C)[C@H](C)CC[C@]4(C(N)=O)CC[C@]32C)[C@@]1(C)CCC#N
Reply: 1.42
